Origin of values: paper PMC5560554

tested on: HIV-1 NL4-3; assay: Drug susceptibility assay in PHA-activated PBMCs (HIV p24 ELISA day 7); type: cell-based; details: Human immunodeficiency virus 1, NL43, PBMC, 168 h, + 1μM IM; HIV NL4-3 in PBMCs, p24 day 7; (95% CI) in cell; read-out: Geometric mean ART EC50
parameter: EC50 (nM)
Unit nM implied. Number only.

Exam item: Name the recorded EC50 for `CC(C)(C)NC(=O)[C@@H]1CN(Cc2cccnc2)CCN1C[C@@H](O)C[C@@H](Cc1ccccc1)C(=O)N[C@H]1c2ccccc2C[C@H]1O` .
Marked response: 3.55

====

tested on: HIV-1 NL4-3; assay: Drug susceptibility assay in PHA-activated PBMCs (HIV p24 ELISA day 7); format: cell-based; conditions: Human immunodeficiency virus 1, NL43, PBMC, 168 h, read-out: Geometric mean ART EC50, No IM; HIV NL4-3 in PBMCs, p24 day 7; (95% CI) in cell
parameter: pEC50
Just the number, please; pEC50 means minus log10 of the concentration in mol/L.

Exam item: Form: Entry = `Cc1nnc(C(=O)NC(C)(C)c2nc(C(=O)NCc3ccc(F)cc3)c(O)c(=O)n2C)o1` | System = HIV-1 NL4-3 | pEC50 = ____
Marked response: 8.16

# input for lookup
Exam item: Form: Entry = `C[C@H](Cn1cnc2c(N)ncnc21)OCP(=O)(O)O` | System = HIV-1 NL4-3 | pEC50 = ____
Marked response: 6.22
